- target under test: δ opioid receptor of the mouse isolated vas deferens (mouse), P32300
- Sequence (P32300 whole entry, stated change not applied): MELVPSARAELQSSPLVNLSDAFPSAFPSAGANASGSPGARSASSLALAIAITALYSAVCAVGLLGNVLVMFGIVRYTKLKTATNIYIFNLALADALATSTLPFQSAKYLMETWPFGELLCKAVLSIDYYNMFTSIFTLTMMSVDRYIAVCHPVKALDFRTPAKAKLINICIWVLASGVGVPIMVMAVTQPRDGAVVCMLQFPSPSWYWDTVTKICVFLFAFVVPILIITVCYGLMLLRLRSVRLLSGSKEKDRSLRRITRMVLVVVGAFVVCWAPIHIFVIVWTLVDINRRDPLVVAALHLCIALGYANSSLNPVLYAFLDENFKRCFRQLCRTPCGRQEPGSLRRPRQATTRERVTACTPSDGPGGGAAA
- experimental details: cell-based or functional assay
Square brackets hold non-standard residues; d marks the D form. Ends that are not written are not given here. * marks the point of attachment. Glc = O-glucosyl on Ser side chain (Ser(OGlu)/Ser(OGlc)); NH(3,5-(CF3)2-benzyl) = FC(F)(F)c1cc(CN*)cc(C(F)(F)F)c1; OBzl(3,5-(CF3)2) = FC(F)(F)c1cc(CO*)cc(C(F)(F)F)c1; Dmt = Cc1cc(O)cc(C)c1C[C@H](N)C(=O)O; Nle = CCCC[C@H](N)C(=O)O; NHBn = c1ccc(CN*)cc1
// reported log10(MVD IC50) per item
Record value = log10 of MVD IC50 given in nM.

Example entries and their recorded answers appear below.
Y[dA]GFMPLW-{NH(3,5-(CF3)2-benzyl)} [TyrDAlaGlyPheMetProLeuTrpNHBn(CF3)2]	1.16
Y[dA]GFS(Glc)PLW-{NH(3,5-(CF3)2-benzyl)} [TyrDAlaGlyPheSer(OGlu)ProLeuTrpNHBn(CF3)2]	2.04
[Dmt][dA]GFMPLW-NHBn [DmtDAlaGlyPheMetProLeuTrpNHBn]	0.84
YAGFXPLW (here or on the partner: D-Ala at 2; Nle at 5 (written X); C-terminal O-3,5-Bzl(CF3)2 ester) [TyrDAlaGlyPheNleProLeuTrpOBn(CF3)2]	1.23
Y[dA]GF[Nle]PS(Glc)W-{NH(3,5-(CF3)2-benzyl)} [TyrDAlaGlyPheNleProSer(OGlu)TrpNHBn(CF3)2]	1.10
Y[dA]GF[dF]PLW-{OBzl(3,5-(CF3)2)} [TyrDAlaGlyPheDPheProLeuTrpOBn(CF3)2]	2.61

Now let's try a different one.
Specify log10(MVD IC50) for [Dmt][dA]GFMPLW-{NH(3,5-(CF3)2-benzyl)} [DmtDAlaGlyPheMetProLeuTrpNHBn(CF3)2] and stop. 0.26
